- Subject Of Test: human OPRM1 (μ, MOR) (Homo sapiens, UniProt P35372)
- Construct: host or cells: CHO-K1
- Sequence (P35372 whole entry): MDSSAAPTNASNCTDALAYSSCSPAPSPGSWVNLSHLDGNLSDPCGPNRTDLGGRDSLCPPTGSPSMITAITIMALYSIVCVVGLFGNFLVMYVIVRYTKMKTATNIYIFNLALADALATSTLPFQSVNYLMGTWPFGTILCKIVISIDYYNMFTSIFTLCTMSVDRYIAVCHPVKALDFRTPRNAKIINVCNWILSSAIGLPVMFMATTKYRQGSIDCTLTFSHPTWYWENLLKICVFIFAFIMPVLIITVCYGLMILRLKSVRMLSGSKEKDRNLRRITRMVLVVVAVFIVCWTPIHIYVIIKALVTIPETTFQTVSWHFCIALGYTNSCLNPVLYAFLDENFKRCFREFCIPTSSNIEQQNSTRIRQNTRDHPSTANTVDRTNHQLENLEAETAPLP
- Assay Method Text: cell-based
- Test Settings: PathHunter human OPRM1 Arrestin CHO-K1 cell line; read-out: β-Arrestin EC50
Where a name gives a salt, the structure may show the parent alone.
Provide the recorded EC50 for the entries that follow.

stdin: Query: EC50; subject: CN(C)C(CNC(=O)N1Cc2ccc(F)cc2C1)c1ccc(O)cc1 (stereo not drawn) [Compound 21]
stdout: > 100 µM

stdin: Query: EC50; subject: CNC(CNC(=O)N1Cc2ccc(F)cc2C1)c1ccc(OC)cc1 (stereo not drawn) [Compound 82]
stdout: > 100 µM

stdin: Query: EC50; subject: CN(C)C(CNC(=O)N1CCCc2ccccc21)c1ccsc1 (stereo not drawn) [Compound 9a, hydrochloride]
stdout: 4.36 µM

stdin: Query: EC50; subject: CNC(CNC(=O)N1Cc2ccccc2C1)c1ccsc1 (stereo not drawn) [Compound 79]
stdout: > 100 µM

stdin: Query: EC50; subject: CN(C)C(CNC(=O)N[C@H]1CCc2ccccc2C1)c1ccsc1 (stereo partly drawn) [Compound 67]
stdout: > 100 µM

stdin: Query: EC50; subject: CN(C)C(CNC(=O)N1Cc2ccc(F)cc2C1)c1ccccc1 (stereo not drawn) [Compound 20a, hydrochloride]
stdout: > 100 µM

stdin: Query: EC50; subject: CN(C)C(CNC(=O)N1Cc2ccccc2C1)c1ccc(F)cc1Cl (stereo not drawn) [Compound 14a, hydrochloride]
stdout: 3.96 µM

stdin: Query: EC50; subject: CN(C)C(CNC(=O)NC1CCc2ccccc2C1)c1ccccc1 (stereo not drawn) [Compound 19a, hydrochloride]
stdout: > 100 µM

stdin: Query: EC50; subject: CN(C)[C@H](CCNC(=O)N[C@@H]1CCc2ccccc2C1)c1ccsc1 [Compound 72]
stdout: 2.61 µM

---

- Subject Of Test: human OPRM1 (μ, MOR) (Homo sapiens, UniProt P35372)
- Construct: host or cells: CHO-K1
- Assay Method Text: cell-based
- Test Settings: PathHunter human OPRM1 Arrestin CHO-K1 cell line; read-out: cAMP EC50
Where a name gives a salt, the structure may show the parent alone.
Provide the recorded log10 EC50 for the entries that follow.
Heads up: the numbers are on a log10 scale; they represent EC50 in nM.

stdin: Query: log10 EC50; subject: CN(C)C(CNC(=O)N1CCCc2cc(F)ccc21)c1ccsc1 (stereo not drawn) [Compound 7a, hydrochloride]
stdout: 2.61

stdin: Query: log10 EC50; subject: CN(C)C(CNC(=O)N1CCCc2cc(F)ccc21)c1ccccc1 (stereo not drawn) [Compound 70a]
stdout: 2.71

stdin: Query: log10 EC50; subject: CN(C)C(CNC(=O)NC1CCCc2c(O)cccc21)c1ccsc1 (stereo not drawn)
stdout: 0.78

stdin: Query: log10 EC50; subject: CN(C)C1(CNC(=O)N2Cc3ccc(F)cc3C2)CCOCC1
stdout: 3.07

stdin: Query: log10 EC50; subject: COc1ccc(C(CNC(=O)N2CC[C@H](c3ccccc3)C2)N(C)C)cc1 (stereo partly drawn)
stdout: 3.24

stdin: Query: log10 EC50; subject: CN(C)C1(CNC(=O)N2Cc3ccc(F)cc3C2)CCCCC1
stdout: 2.72

stdin: Query: log10 EC50; subject: COc1ccc(C(CNC(=O)N2Cc3ccccc3C2)N(C)C)cc1 (stereo not drawn) [Compound 15a, hydrochloride]
stdout: 1.18

stdin: Query: log10 EC50; subject: COc1ccc(C(CNC(=O)N2CCCc3cc(F)ccc32)N(C)C)cc1 (stereo not drawn) [Compound 68a]
stdout: 2.22

stdin: Query: log10 EC50; subject: CN(C)C(CNC(=O)N1Cc2ccc(F)cc2C1)c1ccccc1 (stereo not drawn) [Compound 20a, hydrochloride]
stdout: 1.49

stdin: Query: log10 EC50; subject: CN(C)C1(CNC(=O)N[C@@H]2CCc3ccccc3C2)CCCCC1
stdout: 3.45

stdin: Query: log10 EC50; subject: CN(C)C(CNC(=O)N1CCCc2ccccc21)c1ccccc1 (stereo not drawn) [Compound 69a]
stdout: 2.75

stdin: Query: log10 EC50; subject: CN(C)[C@H](CCNC(=O)N1Cc2ccc(F)cc2C1)c1ccsc1
stdout: 2.78

stdin: Query: log10 EC50; subject: CNC(CNC(=O)N1Cc2ccccc2C1)c1ccccc1 (single isomer, unassigned) [Compound 38-ent-B]
stdout: 2.92

stdin: Query: log10 EC50; subject: CNC(CNC(=O)N1Cc2cccc(F)c2C1)c1ccsc1 (stereo not drawn) [Compound 80]
stdout: 1.61

stdin: Query: log10 EC50; subject: CN(C)C(CNC(=O)N1Cc2cc(F)c(F)cc2C1)c1ccsc1 (stereo not drawn) [Compound 6a, hydrochloride]
stdout: 0.95

stdin: Query: log10 EC50; subject: CN(C)C(C)(C)CNC(=O)N1Cc2ccc(F)cc2C1
stdout: 4.32

stdin: Query: log10 EC50; subject: CN(C)C(CNC(=O)N[C@H]1CCc2ccccc2C1)c1ccsc1 (stereo partly drawn) [Compound 67]
stdout: 1.11

stdin: Query: log10 EC50; subject: CNC(CNC(=O)N1Cc2ccccc2C1)c1ccsc1 (stereo not drawn) [Compound 78]
stdout: 2.56

stdin: Query: log10 EC50; subject: CN(C)C(CNC(=O)N1Cc2cccc(C#N)c2C1)c1ccsc1 (stereo not drawn)
stdout: 2.21

stdin: Query: log10 EC50; subject: CN(C)C(CNC(=O)N1CCCc2ccc(O)cc21)c1ccsc1 (stereo not drawn)
stdout: 3.00

stdin: Query: log10 EC50; subject: CN(C)C(CNC(=O)N1Cc2cccc(F)c2C1)c1ccsc1 (stereo not drawn) [Compound 3a, hydrochloride]
stdout: 1.15

stdin: Query: log10 EC50; subject: CN(C)C(CNC(=O)N1CC[C@H](c2ccccc2)C1)c1ccsc1 (stereo partly drawn)
stdout: 2.18

stdin: Query: log10 EC50; subject: CN(C)[C@@H](CCNC(=O)N1CC[C@@H](c2ccccc2)C1)c1ccsc1
stdout: 3.04

stdin: Query: log10 EC50; subject: CN(C)C(CNC(=O)N[C@H]1CCc2ccc(O)cc2C1)c1ccsc1 (stereo partly drawn)
stdout: 2.83

stdin: Query: log10 EC50; subject: CN(C)C(CNC(=O)N(C)C1CCCc2ccccc21)c1ccsc1 (stereo not drawn) [Compound 13a, hydrochloride]
stdout: 1.83

stdin: Query: log10 EC50; subject: CN(C)C(CNC(=O)N(C)[C@@H]1CCCc2ccccc21)c1ccsc1 (stereo partly drawn)
stdout: 2.44

stdin: Query: log10 EC50; subject: CN(C)C1(CNC(=O)N2Cc3ccc(F)cc3C2)CCCC1
stdout: 3.40

stdin: Query: log10 EC50; subject: CN(C)[C@@H](CCNC(=O)N1Cc2ccc(F)cc2C1)c1ccsc1
stdout: 2.84

stdin: Query: log10 EC50; subject: CN(C)C(CNC(=O)N1CCCc2cc(O)ccc21)c1ccsc1 (stereo not drawn)
stdout: 2.43

stdin: Query: log10 EC50; subject: CNC(CNC(=O)N1Cc2ccccc2C1)c1ccsc1 (stereo not drawn) [Compound 79]
stdout: 1.94

stdin: Query: log10 EC50; subject: CNC(CNC(=O)N1Cc2ccc(F)cc2C1)c1ccsc1 (stereo not drawn)
stdout: 3.07

Where do these numbers come from? They come from patent US20220315567A1.
